target: Cytochrome P450 1A2 (Homo sapiens) (UniProt P05177); experiment: Cytochrome P450 Family 1 Subfamily A Member 2 (CYP1A2) small molecule antagonists: luciferase reporter qHTS assay (AID 1671199); conditions: P450-Glo CYP1A2 enzyme, luciferin luminescence, 1 h; series mostly up to 115 µM; note: nearly all actives have a fitted effect of over 50% in size
Sequence (P05177 whole entry, looked up): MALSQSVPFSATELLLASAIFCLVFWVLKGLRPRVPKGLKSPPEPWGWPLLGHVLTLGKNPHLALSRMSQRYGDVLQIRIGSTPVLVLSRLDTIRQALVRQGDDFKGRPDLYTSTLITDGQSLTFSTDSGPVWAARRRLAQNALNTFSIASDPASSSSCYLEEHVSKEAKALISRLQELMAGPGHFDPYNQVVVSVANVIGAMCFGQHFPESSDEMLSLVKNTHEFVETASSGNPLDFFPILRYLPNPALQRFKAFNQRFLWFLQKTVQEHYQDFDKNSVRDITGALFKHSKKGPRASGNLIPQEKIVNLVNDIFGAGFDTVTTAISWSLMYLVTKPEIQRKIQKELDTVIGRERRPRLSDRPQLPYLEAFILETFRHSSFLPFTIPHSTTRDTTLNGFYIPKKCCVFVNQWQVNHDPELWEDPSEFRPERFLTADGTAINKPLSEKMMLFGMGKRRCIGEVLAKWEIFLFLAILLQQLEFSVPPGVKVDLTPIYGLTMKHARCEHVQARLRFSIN
Results filed as inconclusive are left out. Active and inactive are the calls of the source. Calls come from the whole dose curve; as a rule, active = well fitted inhibition curve with a large enough effect in the repeat runs; inconclusive = weak or mixed curves; inactive = no such curve, though single readings can be large or run the other way.
Possible outcomes: 1.0 for active, 0.0 for inactive

compound: CC1(c2ccc(Oc3ccccc3)cc2)OC(=O)N(Nc2ccccc2)C1=O (stereo unspecified)
targetDesc: Cytochrome P450 1A2 (Homo sapiens) (UniProt P05177)
assignedLabel: 1.0
--
compound: CCOP(=S)(OCC)OC(Cl)C(Cl)(Cl)Cl (stereo unspecified)
targetDesc: Cytochrome P450 1A2 (Homo sapiens) (UniProt P05177)
assignedLabel: 1.0
--
compound: Nc1c(Oc2ccccc2)cc(O)c2c1C(=O)c1ccccc1C2=O
targetDesc: Cytochrome P450 1A2 (Homo sapiens) (UniProt P05177)
assignedLabel: 1.0
--
compound: Cc1cc(Cl)ccc1O[C@H](C)C(=O)O
targetDesc: Cytochrome P450 1A2 (Homo sapiens) (UniProt P05177)
assignedLabel: 0.0
--
compound: CCC(C)c1cc([N+](=O)[O-])cc([N+](=O)[O-])c1OC(=O)C=C(C)C (stereo unspecified)
targetDesc: Cytochrome P450 1A2 (Homo sapiens) (UniProt P05177)
assignedLabel: 1.0
--
compound: O=c1ssc(Cl)c1Cl
targetDesc: Cytochrome P450 1A2 (Homo sapiens) (UniProt P05177)
assignedLabel: 1.0

----------
assay: qHTS assay to identify small molecule agonists of the estrogen receptor alpha (ER-alpha) signaling pathway in the presence of an antagonist - cell viability counter screen (AID 1259386); settings: VM7Luc4E2 viability, CellTiter-Fluor fluorescence, 22 h; series mostly up to 92.4 µM;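 note: cells exposed to compounds for 22 h at 37 °C before the viability read; nearly all actives have a fitted effect of over 30% in size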
Records with an inconclusive call do not appear. Active and inactive are the calls of the source. Calls come from the whole dose curve; as a rule, active = well fitted cell-killing curve with a large enough effect in the repeat runs; inconclusive = weak or mixed curves, or effect the other way; inactive = no such curve, though single readings can be large or run the other way.
Possible outcomes: active, inactive

compound: CC(C)(C)c1ccc(CSc2cnn(C(C)(C)C)c(=O)c2Cl)cc1
assignedLabel: active
--
compound: O=C(Cl)c1ccc(Cl)cc1
assignedLabel: inactive
--
compound: Cc1cc(C)cc(OP(=O)(Oc2cc(C)cc(C)c2)Oc2cc(C)cc(C)c2)c1
assignedLabel: inactive
--
compound: FC(F)(F)c1cccc(C2=CCN(CCc3ccc4ccccc4c3)CC2)c1
assignedLabel: inactive
--
compound: O=c1oc2ccccc2c(O)c1Cc1c(O)c2ccccc2oc1=O
assignedLabel: inactive
--
compound: CN(C)S(=O)(=O)N(SC(F)(Cl)Cl)c1ccccc1
assignedLabel: inactive
--
compound: Fc1ccc(Oc2ccnc3cc(Cl)cc(Cl)c23)cc1
assignedLabel: inactive
--
compound: O=C1C=CC(=O)c2ccccc21
assignedLabel: active
--
compound: CC(=O)O[C@H]1CC[C@@]2(C)C(=CC[C@@H]3[C@@H]2CC[C@]2(C)C(=O)CC[C@@H]32)C1
assignedLabel: inactive
--
compound: O=[N+]([O-])c1ccc2ccc3cccc4ccc1c2c34
assignedLabel: active
--
compound: OC(Cc1ccccc1Cl)(Cn1cncn1)C1(Cl)CC1 (configuration not stated)
assignedLabel: inactive
--
compound: [CH3][Hg][Cl]
assignedLabel: inactive

----------
test: Caspase-3/7 induction in HepG2 cells by small molecules, qHTS assay (AID 1346978); settings: HepG2 caspase-3/7 activation, Caspase-Glo luminescence, 17 h; series mostly up to 92.4 µM; note: nearly all actives have a fitted effect of over 15% in size; note: potency is the fitted concentration of half-maximal effect
Inconclusive results are not listed. Active and inactive are the calls of the source. Calls come from the whole dose curve; as a rule, active = well fitted activation curve with a large enough effect in the repeat runs; inconclusive = weak or mixed curves; inactive = flat fitted curve, though single readings scatter.

compound: COc1ccc(N)cc1N
Potency: inactive
//
compound: ClC(Cl)=C(Cl)Cl
Potency: inactive
//
compound: C[C@]12CC[C@H]3[C@@H](CCC4=CC(=O)CC[C@@]43C)[C@@H]1CC[C@@H]2O
Potency: inactive
//
compound: N#CNC#N
Potency: inactive
//
compound: C[C@]12CC[C@@H]3c4ccc(OC(=O)N(CCCl)CCCl)cc4CC[C@H]3[C@@H]1CC[C@@H]2O
Potency: inactive
//
compound: CCOCn1c(-c2ccc(Cl)cc2)c(C#N)c(Br)c1C(F)(F)F
Potency: inactive
//
compound: O=c1oc2ccccc2c(O)c1Cc1c(O)c2ccccc2oc1=O
Potency: inactive
//
compound: CC(C)CC(C)N (stereo not drawn)
Potency: inactive
//
compound: Clc1ccc(-c2ccc(Cl)c(Cl)c2Cl)c(Cl)c1Cl
Potency: inactive
//
compound: FC(Cl)(Cl)Cl
Potency: inactive
//
compound: S=C(SSC(=S)N1CCCCC1)N1CCCCC1
Potency: inactive
//
compound: CCOP(=S)(OCC)SCS(=O)(=O)CC
Potency: inactive
//
compound: Nc1ccc(Sc2ccc(N)cc2)cc1
Potency: inactive
//
compound: NC(=O)c1ccc(N)nc1
Potency: inactive
//
compound: O=C(CCl)Nc1ccccc1
Potency: inactive
//
compound: C=CC(=O)OCC(COC(=O)C=C)(COC(=O)C=C)COC(=O)C=C
Potency: 15.4 µM (active)
//
compound: COc1ccc([N+](=O)[O-])cc1O
Potency: inactive
//
compound: CCOCCOC(C)=O
Potency: inactive
//
compound: CC(=[OH+])/C=C(/C)[O-].CC(=[OH+])/C=C(\C)[O-].CC(=[OH+])/C=C(\C)[O-].[Fe]
Potency: inactive
//
compound: O=C(CCl)C(Cl)Cl
Potency: inactive
//
compound: Oc1cccc(-c2ccccc2)c1
Potency: inactive
//
compound: CN(CCCC(O)c1cccnc1)N=O (stereo not drawn)
Potency: inactive
//
compound: CC(C)(C)OO
Potency: inactive
//
compound: N#CCc1ccc(Cl)cc1
Potency: inactive
//
compound: Cc1cc(C(F)(C(F)(F)F)C(F)(F)F)ccc1NC(=O)c1cccc(I)c1C(=O)NC(C)(C)CS(C)(=O)=O
Potency: inactive
//
compound: Cc1cc(Cl)ccc1O[C@H](C)C(=O)O
Potency: inactive
//
compound: CC(C)C(=O)Cl
Potency: inactive
//
compound: CCC[CH2][Sn]([CH2]CCC)([CH2]CCC)[O]C(=O)c1ccccc1
Potency: 3.06 µM (active)
